system: MS2 coat protein; experiment: apparent KD of MS2 coat protein; higher = weaker reporter binding; settings: Eterna round: R107; input ligand: theophylline 2 mM
apparent KD of MS2 coat protein listing for selected sequences.
Output spec: scalar in nM, unitless text.

Recorded apparent KD of MS2 coat protein, per entry:
>>> numeric_result("UGUAUGGACUGAAGGAGCGCCUCAAAAUAACAUGAGGAUCACCCAUGUGGCGAAAGCCUUGGGCAGGUAGGUCGCAGUCCAUACU [ArgBX 1 #StaticStem]")
72.1
>>> numeric_result("UGCCGAGACGUGGAUUACCCGUGUACCGAAGGAGCGCCCGAAAGGGCAGGUAGGUCGCGGAGGACAUGAGGAUCACCCAUGUUGA")
96.8
>>> numeric_result("GGUUACUCUACGGCCGCCACUGAUUAAUUAUAAACCUGUACAUAAACAUGAGGAUCACCCAUGUACAGGACCGGGUAGUGUAACC [Tryptophan B 9]")
39.1
>>> numeric_result("CCGUUUUAUGGCGACAUAGGGCGGACUGAAGGAGCGGUAUAAUAGCCAGGUAGGUCGCAGAGAUCCACAUGAGGAUCACCCAUGU [!0.aB]")
42.9
>>> numeric_result("AAGGCACGAGACAUGAGGAUCACCCAUGUUCGAGGACCGGUACGGCCGCCACUCGGUGGACUCAUGGUAAAGCCGGUGAGCCAAA [AK 1.1 SS Trypt (A)]")
22.5

Record GGAUAGGACAGAAGGAGCGGCAUGGCAGAAACUGCAAUCCUCCUACACGAGGAUCACCCGUGUCAGGUAGGUCGCUGUCCUAUCG [ArgXB 13 #Zipper #MS2Left #StaticStem #Blueprint] , field apparent KD of MS2 coat protein: 19

Record UGCCUAGACGUGGAUUACCCGUGUACCGAAGGAGCGCCCGAAAGGGCAGGUAGGUCGCGGAGGACAUGAGGAUCACCCAUGUUUG , field apparent KD of MS2 coat protein: 134

Record GAGUCCGCGGCGGCCGCCACUCGCGGCGCCACAUGGCGCCGGGACAUGAGGAUCACCCAUGUCCCGAGGACCGGGCCGAUCCUCA [Same State Typrtophan B GF4] , field apparent KD of MS2 coat protein: 33.9

Record UGUAUGUGAUCUGAUACCAGCGUUGAUAACCUGAGGAUCACCCUGGUAAAGGCGAAAGCCCGCCCUUGGCAGCAGAUCGCAUACU , field apparent KD of MS2 coat protein: 24.9

====

apparent KD of MS2 coat protein listing for selected sequences.
test system: MS2 coat protein; assay: apparent KD of MS2 coat protein; designed switch direction (-1 OFF switch, 1 ON switch): -1; higher = weaker reporter binding; details: input ligand: none
Output spec: scalar in nM, unitless text.

Recorded apparent KD of MS2 coat protein, per entry:
>>> numeric_result("GGUUUGGGAGGAUAUGGUUUUAAUAACAUGAGGAUCACCCAUGUAAAUAGAUCCUCAAGGCCAGAAGGCUCAAACC [-26.1, -25.22 kcal, A 33%] (Eterna round: R97, puzzle: Exclusion 5)")
1980
>>> numeric_result("CCUCUACAUGAGGAUCACCCAUGUGAGGAUAUAGACCGGCCUAACGCGGGCUCGGGAGCUAGAAGGCACAUAGA [EX1 C.7] (Eterna round: R97, puzzle: Exclusion 1)")
21.8
>>> numeric_result("CUAAUUAGAGGAUAUACAUGAGGAUCACCCAUGUUCUUCAAGUCGCCAACGGCAUAACGUAGAAGGCUGAGUGG [Eternabot (L1) Solution 32] (Eterna round: R97, puzzle: Exclusion 3)")
25.8
>>> numeric_result("AUACCCAGAGGAUAUGCCGCUGGGUGCCCUCUGCAUAAAACACUUGAGGAUCACCCAAGUAGAAGGCUGGGCUC [Leiseses] (Eterna round: R97, puzzle: Exclusion 2)")
78.1

Record AUCAUGCAGUAGGAUAUCGAUCCACAAUAUGAACGAGAAGGGCUGACAUGAGGAUCACCCAUGUGCGUCCGAAG [Becebe] (Eterna round: R97, puzzle: Exclusion 6) , field apparent KD of MS2 coat protein: 19
